shrunken log2 fold change overview
- System: Escherichia coli TOP10
- protocolDetails: shrunken log2 fold change of peptide-encoding DNA abundance (4.5 h post-induction vs induction); higher = less antimicrobial activity (less host growth inhibition)
- experimentalConditions: time post-induction: 4.5 h; library: site-saturation at positions 5, 18, 19, 20

- seqText: "RRIRNRPPRLPRPRPRPCSGPRP"
  shrunken log2 fold change: -0.242
- seqText: "RRIRVRPPRLPRPRPRPKIPPRP"
  shrunken log2 fold change: 0.0285
- seqText: "RRIRIRPPRLPRPRPRPRGMPRP"
  shrunken log2 fold change: 0.0423
- seqText: "RRIRARPPRLPRPRPRPLNFPRP"
  shrunken log2 fold change: -0.249
- seqText: "RRIRCRPPRLPRPRPRPIDAPRP"
  shrunken log2 fold change: -0.268
- seqText: "RRIRLRPPRLPRPRPRPMVYPRP"
  shrunken log2 fold change: -0.0262
- seqText: "RRIRRRPPRLPRPRPRPWGSPRP"
  shrunken log2 fold change: -0.186
- seqText: "RRIRRRPPRLPRPRPRPHVKPRP"
  shrunken log2 fold change: -0.32
- seqText: "RRIRPRPPRLPRPRPRPYNFPRP"
  shrunken log2 fold change: -0.289
- seqText: "RRIRHRPPRLPRPRPRPMCYPRP"
  shrunken log2 fold change: 0.118
- seqText: "RRIRFRPPRLPRPRPRPMPCPRP"
  shrunken log2 fold change: -0.557
- seqText: "RRIRNRPPRLPRPRPRPSEFPRP"
  shrunken log2 fold change: -0.109
- seqText: "RRIRHRPPRLPRPRPRPDKKPRP"
  shrunken log2 fold change: -0.0244
- seqText: "RRIRSRPPRLPRPRPRPKDFPRP"
  shrunken log2 fold change: 0.0212
- seqText: "RRIRARPPRLPRPRPRPQMLPRP"
  shrunken log2 fold change: 1.97
- seqText: "RRIRVRPPRLPRPRPRPLSCPRP"
  shrunken log2 fold change: -0.307
- seqText: "RRIRYRPPRLPRPRPRPEAKPRP"
  shrunken log2 fold change: -0.109

====

shrunken log2 fold change overview
- Tested on: Escherichia coli TOP10;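 note: peptides expressed intracellularly from a pBAD plasmid library in pooled LB shake-flask culture, induced with 0.3% L-arabinose, DNA abundance read by NGS, three biological replicates, DESeq2 with apeglm shrinkage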
- protocolDetails: shrunken log2 fold change of peptide-encoding DNA abundance (4.5 h post-induction vs induction); higher = less antimicrobial activity (less host growth inhibition)
- experimentalConditions: time post-induction: 4.5 h; library: site-saturation at positions 5, 18, 19, 20
parameter: shrunken log2 fold change

- seqText: "RRIRARPPRLPRPRPRPIWPPRP"
  testedOn: "Escherichia coli TOP10"
  parameter: "shrunken log2 fold change"
  experimentalResult: 0.353
- seqText: "RRIRWRPPRLPRPRPRPNLEPRP"
  testedOn: "Escherichia coli TOP10"
  parameter: "shrunken log2 fold change"
  experimentalResult: 0.322
- seqText: "RRIRWRPPRLPRPRPRPQRHPRP"
  testedOn: "Escherichia coli TOP10"
  parameter: "shrunken log2 fold change"
  experimentalResult: 0.163
- seqText: "RRIRSRPPRLPRPRPRPVNEPRP"
  testedOn: "Escherichia coli TOP10"
  parameter: "shrunken log2 fold change"
  experimentalResult: -0.0746
- seqText: "RRIRWRPPRLPRPRPRPSLKPRP"
  testedOn: "Escherichia coli TOP10"
  parameter: "shrunken log2 fold change"
  experimentalResult: 0.0451
- seqText: "RRIRARPPRLPRPRPRPEPDPRP"
  testedOn: "Escherichia coli TOP10"
  parameter: "shrunken log2 fold change"
  experimentalResult: -0.0215
- seqText: "RRIRIRPPRLPRPRPRPLQRPRP"
  testedOn: "Escherichia coli TOP10"
  parameter: "shrunken log2 fold change"
  experimentalResult: -0.106
- seqText: "RRIRDRPPRLPRPRPRPKKGPRP"
  testedOn: "Escherichia coli TOP10"
  parameter: "shrunken log2 fold change"
  experimentalResult: 0.26
- seqText: "RRIRGRPPRLPRPRPRPAADPRP"
  testedOn: "Escherichia coli TOP10"
  parameter: "shrunken log2 fold change"
  experimentalResult: 2.21
- seqText: "RRIRHRPPRLPRPRPRPVGPPRP"
  testedOn: "Escherichia coli TOP10"
  parameter: "shrunken log2 fold change"
  experimentalResult: 0.195
- seqText: "RRIRWRPPRLPRPRPRPRANPRP"
  testedOn: "Escherichia coli TOP10"
  parameter: "shrunken log2 fold change"
  experimentalResult: 0.425
- seqText: "RRIRMRPPRLPRPRPRPALIPRP"
  testedOn: "Escherichia coli TOP10"
  parameter: "shrunken log2 fold change"
  experimentalResult: 0.136
- seqText: "RRIRARPPRLPRPRPRPPFPPRP"
  testedOn: "Escherichia coli TOP10"
  parameter: "shrunken log2 fold change"
  experimentalResult: 0.625
- seqText: "RRIRNRPPRLPRPRPRPNFYPRP"
  testedOn: "Escherichia coli TOP10"
  parameter: "shrunken log2 fold change"
  experimentalResult: -0.225
- seqText: "RRIRNRPPRLPRPRPRPHMKPRP"
  testedOn: "Escherichia coli TOP10"
  parameter: "shrunken log2 fold change"
  experimentalResult: -0.243
- seqText: "RRIRIRPPRLPRPRPRPVHNPRP"
  testedOn: "Escherichia coli TOP10"
  parameter: "shrunken log2 fold change"
  experimentalResult: -0.357
- seqText: "RRIRNRPPRLPRPRPRPLSYPRP"
  testedOn: "Escherichia coli TOP10"
  parameter: "shrunken log2 fold change"
  experimentalResult: -0.319
- seqText: "RRIRNRPPRLPRPRPRPQKHPRP"
  testedOn: "Escherichia coli TOP10"
  parameter: "shrunken log2 fold change"
  experimentalResult: -0.227
- seqText: "RRIRMRPPRLPRPRPRPATIPRP"
  testedOn: "Escherichia coli TOP10"
  parameter: "shrunken log2 fold change"
  experimentalResult: 0.23
- seqText: "RRIRHRPPRLPRPRPRPVENPRP"
  testedOn: "Escherichia coli TOP10"
  parameter: "shrunken log2 fold change"
  experimentalResult: -0.0355
- seqText: "RRIRIRPPRLPRPRPRPSGNPRP"
  testedOn: "Escherichia coli TOP10"
  parameter: "shrunken log2 fold change"
  experimentalResult: 0.0322
- seqText: "RRIRFRPPRLPRPRPRPHSWPRP"
  testedOn: "Escherichia coli TOP10"
  parameter: "shrunken log2 fold change"
  experimentalResult: -0.0147
- seqText: "RRIRMRPPRLPRPRPRPQMYPRP"
  testedOn: "Escherichia coli TOP10"
  parameter: "shrunken log2 fold change"
  experimentalResult: -0.24
- seqText: "RRIRWRPPRLPRPRPRPQIIPRP"
  testedOn: "Escherichia coli TOP10"
  parameter: "shrunken log2 fold change"
  experimentalResult: -0.805
- seqText: "RRIRLRPPRLPRPRPRPTFMPRP"
  testedOn: "Escherichia coli TOP10"
  parameter: "shrunken log2 fold change"
  experimentalResult: -0.305
- seqText: "RRIRGRPPRLPRPRPRPGGIPRP"
  testedOn: "Escherichia coli TOP10"
  parameter: "shrunken log2 fold change"
  experimentalResult: 0.402
- seqText: "RRIRQRPPRLPRPRPRPDCQPRP"
  testedOn: "Escherichia coli TOP10"
  parameter: "shrunken log2 fold change"
  experimentalResult: -0.0643
- seqText: "RRIRDRPPRLPRPRPRPINWPRP"
  testedOn: "Escherichia coli TOP10"
  parameter: "shrunken log2 fold change"
  experimentalResult: -0.044
- seqText: "RRIRWRPPRLPRPRPRPFCLPRP"
  testedOn: "Escherichia coli TOP10"
  parameter: "shrunken log2 fold change"
  experimentalResult: 0.0169
- seqText: "RRIRIRPPRLPRPRPRPQMVPRP"
  testedOn: "Escherichia coli TOP10"
  parameter: "shrunken log2 fold change"
  experimentalResult: -0.186
- seqText: "RRIRSRPPRLPRPRPRPFTCPRP"
  testedOn: "Escherichia coli TOP10"
  parameter: "shrunken log2 fold change"
  experimentalResult: -0.0185
- seqText: "RRIRQRPPRLPRPRPRPHQHPRP"
  testedOn: "Escherichia coli TOP10"
  parameter: "shrunken log2 fold change"
  experimentalResult: -0.309
- seqText: "RRIRQRPPRLPRPRPRPNMHPRP"
  testedOn: "Escherichia coli TOP10"
  parameter: "shrunken log2 fold change"
  experimentalResult: -0.34
- seqText: "RRIRSRPPRLPRPRPRPGGAPRP"
  testedOn: "Escherichia coli TOP10"
  parameter: "shrunken log2 fold change"
  experimentalResult: 0.574
- seqText: "RRIRGRPPRLPRPRPRPEYYPRP"
  testedOn: "Escherichia coli TOP10"
  parameter: "shrunken log2 fold change"
  experimentalResult: 0.166
- seqText: "RRIRARPPRLPRPRPRPGLFPRP"
  testedOn: "Escherichia coli TOP10"
  parameter: "shrunken log2 fold change"
  experimentalResult: 0.601
- seqText: "RRIRCRPPRLPRPRPRPKHRPRP"
  testedOn: "Escherichia coli TOP10"
  parameter: "shrunken log2 fold change"
  experimentalResult: -0.212
- seqText: "RRIRQRPPRLPRPRPRPINSPRP"
  testedOn: "Escherichia coli TOP10"
  parameter: "shrunken log2 fold change"
  experimentalResult: -0.413
- seqText: "RRIRARPPRLPRPRPRPTNHPRP"
  testedOn: "Escherichia coli TOP10"
  parameter: "shrunken log2 fold change"
  experimentalResult: -0.181
- seqText: "RRIRWRPPRLPRPRPRPKKPPRP"
  testedOn: "Escherichia coli TOP10"
  parameter: "shrunken log2 fold change"
  experimentalResult: 0.558
- seqText: "RRIRMRPPRLPRPRPRPSWRPRP"
  testedOn: "Escherichia coli TOP10"
  parameter: "shrunken log2 fold change"
  experimentalResult: 0.194
- seqText: "RRIRTRPPRLPRPRPRPRVYPRP"
  testedOn: "Escherichia coli TOP10"
  parameter: "shrunken log2 fold change"
  experimentalResult: -0.454
- seqText: "RRIRQRPPRLPRPRPRPRDHPRP"
  testedOn: "Escherichia coli TOP10"
  parameter: "shrunken log2 fold change"
  experimentalResult: 0.423
